# ASSAYED SYSTEM: T1, human ILT8 (LILRA6) on CHO cells (human, UniProt Q6PI73 24-477)
# T1 construct: also called CHO ILT8 cell line
# T1 sequence (Q6PI73 other isoform, or with tags, fused parts or gaps): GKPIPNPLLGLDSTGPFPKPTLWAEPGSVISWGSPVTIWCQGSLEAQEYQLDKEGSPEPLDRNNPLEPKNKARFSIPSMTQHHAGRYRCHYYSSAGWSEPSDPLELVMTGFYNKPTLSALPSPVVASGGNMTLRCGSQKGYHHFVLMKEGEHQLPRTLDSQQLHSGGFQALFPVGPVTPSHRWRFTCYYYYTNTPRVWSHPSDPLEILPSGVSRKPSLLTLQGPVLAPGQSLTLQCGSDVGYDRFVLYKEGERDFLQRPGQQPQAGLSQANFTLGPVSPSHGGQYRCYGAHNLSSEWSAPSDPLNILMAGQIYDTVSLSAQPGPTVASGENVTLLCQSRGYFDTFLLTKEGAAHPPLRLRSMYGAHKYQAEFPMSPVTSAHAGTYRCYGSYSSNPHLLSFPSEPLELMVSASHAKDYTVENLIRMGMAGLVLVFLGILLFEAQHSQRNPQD
# EXPERIMENTAL PROTOCOL: flow cytometry, CHO transfectants
PARAMETER: binding result

binder="27C10 (antibody, human IgG1, V domains shown) VH: EVQLQESGPGLVKPSQSLSLTCSVTGYSITSGYYWNWIRQFPENKLEWMGYIRYDGSNNYNPSLNNRISITRDASKNQFFLKLNSVTTEDTATYYCARGWLLWFYAVDYWGQGTSVTVSS VL: DVVMTQTPLSLPVSLGDQASISCRSSQSIVHTNGNTYLEWYLQKSGQSPKLLIYKVSNRLSGVPDRFSGSGSGTDFTLKISRVEAEDLGIYYCFQGSHVPWTFGGGTKLEIK" val="no binding"
binder="26D8 (antibody, human IgG1, V domains shown) VH: QVQLQQSGAELVKPGASVKLSCKASGYTFTEHTIHWIKQRSGQGLEWIGWFYPGSGSMKYNEKFKDKATLTADKSSSTVYMELTRLTSEDSAVYFCARHTNWDFDYWGQGTTLTVSS VL: DIVLTQSPASLAVSLGQRATISCKASQSVDYGGDSYMNWYQQKPGQPPKLLIYAASNLESGIPARFSGSGSGTDLTLNIHPVEEDDAAMYYCQQSNEEPWTFGGGTKLEIK" val="no binding"
binder="18E1 (antibody, human IgG1, V domains shown) VH: QVQLQQSGAELVKPGASVRLSCKASGYTFTAHTIHWVKQRSGQGLEWIGWLYPGSGSIKYNEKFKDKATLTADKSSSTVYMELSRLTSEDSAVYFCARHTNWDFDYWGQGTTLTVSS VL: NIVLTQSPASLAVSLGQRATISCKASQSVDYGGASYMNWYQQKPGQPPKLLIYAASNLESGIPARFSGSGSGTDLTLNIHPVEEEDAAMYYCQQSNEEPWTFGGGTKLEIK" val="no binding"
